molecular target: SIRT1 (Homo sapiens); assay: Trp mass spectrometry assay (SIRT1 activation); format: biochemical; conditions: Trp mass spectrometry assay; EC1.5 = concentration of test compound that results in 150% activation of SIRT1
Sequence (Q96EB6 whole entry): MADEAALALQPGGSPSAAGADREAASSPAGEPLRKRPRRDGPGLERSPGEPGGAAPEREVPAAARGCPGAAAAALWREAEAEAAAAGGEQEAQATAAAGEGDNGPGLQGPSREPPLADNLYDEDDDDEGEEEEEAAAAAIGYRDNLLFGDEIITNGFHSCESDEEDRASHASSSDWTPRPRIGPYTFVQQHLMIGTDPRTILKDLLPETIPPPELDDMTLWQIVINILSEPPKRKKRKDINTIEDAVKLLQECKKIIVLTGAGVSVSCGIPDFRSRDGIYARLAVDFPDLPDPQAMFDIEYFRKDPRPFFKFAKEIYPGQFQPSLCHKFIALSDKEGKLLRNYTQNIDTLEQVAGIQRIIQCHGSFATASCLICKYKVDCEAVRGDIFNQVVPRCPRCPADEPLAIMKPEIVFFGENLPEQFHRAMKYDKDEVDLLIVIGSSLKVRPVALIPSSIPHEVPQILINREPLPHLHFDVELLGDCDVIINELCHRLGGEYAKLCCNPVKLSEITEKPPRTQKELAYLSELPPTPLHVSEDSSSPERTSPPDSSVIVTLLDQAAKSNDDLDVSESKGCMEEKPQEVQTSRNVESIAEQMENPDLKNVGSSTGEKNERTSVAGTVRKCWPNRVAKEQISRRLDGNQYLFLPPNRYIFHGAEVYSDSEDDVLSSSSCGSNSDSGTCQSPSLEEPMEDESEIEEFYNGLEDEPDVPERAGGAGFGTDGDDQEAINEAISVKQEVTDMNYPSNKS
ASSAY READOUT: Tryp AVG EC1.5 (μM)

[[record]]
compound = "COc1cc(-c2cccc(C(F)(F)F)c2)nc2c1N1CC[C@@H](C1)N2C(=O)Nc1ccncc1"
value_reported = "A (EC1.5<1 μM)"

[[record]]
compound = "Cc1csc(NC(=O)N2c3nc(N4CCCC(C(F)(F)F)C4)ccc3N3CC[C@H]2C3)n1 (some centres unmarked)"
value_reported = "A (EC1.5<1 μM)"

[[record]]
compound = "Cn1ncc2cc(NC(=O)N3c4nc(-c5cccc(OC(F)(F)F)c5)ccc4N4CC[C@H]3C4)ccc21"
value_reported = "A (EC1.5<1 μM)"

[[record]]
compound = "Cc1cnccc1NC(=O)N1c2nc(C3CCCC(C(F)(F)F)C3)ccc2N2CC[C@H]1C2 (some centres unmarked)"
value_reported = "B (EC1.5 1-25 μM)"

[[record]]
compound = "O=C(Nc1ccc(F)cn1)N1c2nc(-c3cccc(N4CCCC4)c3)ccc2N2CC[C@H]1C2"
value_reported = "B (EC1.5 1-25 μM)"


Lookup: Entry under review: "COc1cncc(NC(=O)N2c3nc(-c4cccc(OC(F)(F)F)c4)ccc3N3CC[C@H]2C3)n1" . Reported Tryp AVG EC1.5 (μM)?
Found: A (EC1.5<1 μM)

Lookup: Entry under review: "Cc1nc(NC(=O)N2c3nc(-c4cccc(C(F)(F)F)c4)ccc3N3CC[C@H]2C3)nc2c1CCC2" . Reported Tryp AVG EC1.5 (μM)?
Found: B (EC1.5 1-25 μM)

Lookup: Entry under review: "COc1cncc(NC(=O)N2c3nc(-c4cccc(C#N)c4)ccc3N3CC[C@H]2C3)n1" . Reported Tryp AVG EC1.5 (μM)?
Found: B (EC1.5 1-25 μM)
